The compounds listed here are annotated with their TGI.
test system: NCI-H460 lung; test: NCI tumour cell line growth inhibition, 48 h
measured_metric: TGI

INSERT INTO measurements (compound, study_target, measured_metric, result) VALUES
  ('COc1c2c(cc3nc4ccccc4nc13)CC[C@H](NC(C)=O)c1cc(=O)c(SC)ccc1-2', 'NCI-H460 lung', 'TGI', '> 100 µM'),
  ('CCN(CC)CCOc1ccc(/C=C2\CC3C4CC=C5C[C@@H](N6CCCC6)CC[C@]5(C)C4CC[C@]3(C)[C@H]2OC(C)=O)cc1OC (stereo not given in full)', 'NCI-H460 lung', 'TGI', '4.46 µM'),
  ('C=C(C)C(=O)OC1CC2(C)OC(=CC2=O)C(C)CC2OC(=O)C(=C)C12 (stereo not given)', 'NCI-H460 lung', 'TGI', '29.7 µM'),
  ('O=C1CC(c2ccccc2Cl)Oc2ccccc21 (stereo not given)', 'NCI-H460 lung', 'TGI', '> 100 µM'),
  ('CCc1n[nH]c(=O)n1NC(=O)CCCC(=O)O', 'NCI-H460 lung', 'TGI', '> 100 µM'),
  ('Cc1cc(C)c2c(=O)n(CN3CCC(C#N)(c4ccccc4)CC3)sc2n1', 'NCI-H460 lung', 'TGI', '> 100 µM'),
  ('Oc1ccc(N=Cc2ccc(C=Nc3ccc(O)cc3)cc2)cc1', 'NCI-H460 lung', 'TGI', '72.7 µM'),
  ('COc1ccc(NC(=O)C2C(=O)N(c3ccc(OC)cc3)C(=O)/C2=N\N)cc1 (stereo not given)', 'NCI-H460 lung', 'TGI', '> 100 µM'),
  ('COC(=O)c1cc2c3c(c1)Oc1cc(C(=O)OC)cc4c1C3c1c(cc(C(=O)OC)cc1O4)O2', 'NCI-H460 lung', 'TGI', '> 100 µM'),
  ('N#Cc1c(N)nc(Nc2cccc3ccccc23)c(C#N)c1C#N', 'NCI-H460 lung', 'TGI', '> 10 µM');

====

tested on: UACC-62 melanoma; assay: NCI tumour cell line growth inhibition, 48 h
The compounds listed here are annotated with their TGI.
measured_metric: TGI

INSERT INTO results (compound, result) VALUES
  ('Cc1cc(O)c2c3c1C(=O)Oc1c(CO)c(O)c(C(=O)O)c(c1O3)C=NN=Cc1c3c(c(CO)c(O)c1C(=O)O)OC(=O)c1c(C)cc(O)c(c1O3)C=NN=C2', '> 100 µM'),
  ('C=C(C)C(=O)OC1CC2(C)OC(=CC2=O)C(C)CC2OC(=O)C(=C)C12 (configuration not stated)', '27.7 µM'),
  ('c1ccc(NNN2NC(c3ccccc3)C2c2ccccc2)cc1 (configuration not stated)', '> 100 µM'),
  ('COC(=O)CCCc1c(-c2[nH]c3ccccc3c2CCCC(=O)OC)[nH]c2ccccc12', '> 100 µM'),
  ('CCOC(=O)/C=C/C1=C(c2csc3ccccc23)c2ccccc2CC1', '> 100 µM'),
  ('CCCc1cc(=O)oc2c3c(c4c(c12)OC(C)(C)CC4)O[C@H](C)[C@@H](C)[C@H]3O', '27.4 µM'),
  ('C=CC(=O)NC(O)(C(=O)OCC)C(F)(F)F (configuration not stated)', '> 100 µM'),
  ('CC(C)[Si]1(C(C)C)OCC2OC(N3C(=O)NC(=O)C[C@@H]3C(O)c3ccccc3)CC2O[Si](C(C)C)(C(C)C)O1 (some centres not stated)', '22.4 µM'),
  ('O=C(Nc1ccn(CCOC(=O)c2ccccc2)c(=O)n1)c1ccccc1', '> 100 µM'),
  ('O=c1[nH]c(=S)[nH]c2c1C(c1ccc(Cl)cc1)c1c([nH]c(=S)[nH]c1=O)O2', '> 100 µM'),
  ('COc1cccc2c1-c1ccccc1C2=O', '> 100 µM'),
  ('Cn1ccnc1Sc1ccc(/C=N/NC(=O)c2ccccc2[N+](=O)[O-])cc1[N+](=O)[O-]', '> 100 µM'),
  ('CC(=O)N=C1C=C(NC(C)=O)C(=O)c2ccccc21', '6.18 µM'),
  ('Cc1ccc(/C=C2\N=C(N3CCOCC3)NC2=O)cc1', '> 100 µM'),
  ('NC(=O)c1cccc(N2Cc3ccccc3OC3=C2C(=O)c2c(O)ccc(O)c2C3=O)c1', '1.14 µM'),
  ('COC(=O)C1CC2C=CC1N(C(=O)OCc1ccccc1)C2 (configuration not stated)', '> 100 µM'),
  ('Cc1cc(C)c2cc(N)c(Cl)nc2n1', '> 100 µM'),
  ('Cc1nn2c(C(=O)N/N=C/c3ccccc3O)c(C)nc2s1', '> 100 µM'),
  ('COc1cccc(C2C(C(=O)O)=C(CO)Oc3cc4c(cc32)OCO4)c1OC (configuration not stated)', '> 100 µM'),
  ('NNC1=N/C(=C\c2ccccc2O)C(=O)N1', '> 100 µM'),
  ('O[N+]1=CC=CCC1=S.On1ccccc1=S.[Zn]', '2.23 µM'),
  ('CC(C)(C)OC(=O)N1CCCC1=O', '> 10 µM');

====

The compounds listed here are annotated with their TGI.
test system: CCRF-CEM leukemia; assay: NCI tumour cell line growth inhibition, 48 h
measured_metric: TGI

INSERT INTO measurements (compound, study_target, result) VALUES
  ('FC(F)(F)c1cccc(Nc2nc3ccccc3nc2Nc2cccc(C(F)(F)F)c2)c1', 'CCRF-CEM leukemia', '3.84 µM'),
  ('COc1cccc2c(Nc3ccc(S(=O)(=O)Nc4ncccn4)cc3)c3ccc([N+](=O)[O-])cc3nc12', 'CCRF-CEM leukemia', '> 100 µM'),
  ('C[C@]12CC[C@@H]3c4cc(Br)c(O)c(Br)c4CC[C@H]3[C@@H]1CCC2=O', 'CCRF-CEM leukemia', '> 100 µM'),
  ('COc1cccc(C2C(C(=O)O)=C(CO)Oc3cc4c(cc32)OCO4)c1OC (stereo not given)', 'CCRF-CEM leukemia', '> 100 µM'),
  ('O[N+]1=CC=CCC1=S.On1ccccc1=S.[Zn]', 'CCRF-CEM leukemia', '2.75 µM');

====

test system: KM20L2 colon; assay: NCI tumour cell line growth inhibition, 48 h
measured_metric: TGI

INSERT INTO assay_data (compound, study_target, result) VALUES
  ('CC(C)=CC1CCc2ccccc2N1S(=O)(=O)c1ccc(C)cc1 (stereo not drawn)', 'KM20L2 colon', '3.12 µM'),
  ('CCCNC(=O)C(C)(Cl)C(=O)c1ccccc1O (stereo not drawn)', 'KM20L2 colon', '> 100 µM'),
  ('COc1ccc(CC#N)c(OCc2ccccc2)c1', 'KM20L2 colon', '> 100 µM'),
  ('C1CN1c1nc(N2CC2)nc(N2CC2)n1', 'KM20L2 colon', '47.7 µM'),
  ('COC(=O)[C@]12CSCN1C(=O)C(C(C)=O)=NN2C(=O)[C@](OC)(c1ccccc1)C(F)(F)F', 'KM20L2 colon', '> 100 µM'),
  ('C/C(O)=C/c1nc2ccccc2[nH]1', 'KM20L2 colon', '> 100 µM'),
  ('CCOc1cc2c[n+](C)c3c4cc(OC)c(OC)cc4ccc3c2cc1OC', 'KM20L2 colon', '> 100 µM'),
  ('CCCCCCC1NN(C(C)=O)C(CCCCCC)NN1C(C)=O (stereo not drawn)', 'KM20L2 colon', '> 100 µM');

====

The compounds listed here are annotated with their TGI.
test system: KM12 colon; experiment: NCI tumour cell line growth inhibition, 48 h
measured_metric: TGI

INSERT INTO results (compound, result) VALUES
  ('CCCCCCc1nn2c(-c3ccncc3)nnc2s1', '> 10 µM'),
  ('COc1ccc(/C=C2/N=C(N/N=C\C(O)C(O)C(O)C(O)CO)NC2=O)cc1 (stereo not drawn)', '> 100 µM'),
  ('O=Cc1cc2c(s1)C(=O)c1sccc1C2=O', '7.88 µM'),
  ('COC(=O)[C@@H](C[C@H](Cc1ccccc1)NC(=O)c1csc([C@@H](C[C@H](C(C)C)N(C)C(=O)[C@@H](NC(=O)[C@H]2CCCCN2C)C(C)C)OC(C)=O)n1)NC(=O)OCc1ccccc1', '> 8.33 µM'),
  ('CNc1nc(SC)nc2c1c(N)nn2C', '> 100 µM'),
  ('CC(=O)[CH-]C(C)=O.CC(=O)[CH-]C(C)=O.[CH2-]CCCCCCC.[CH2-]CCCCCCC.[Sn+4]', '34.4 µM'),
  ('O=c1[nH]nc(Cc2ccccc2)n1/N=C\CC/C=N\n1c(Cc2ccccc2)n[nH]c1=O', '> 100 µM'),
  ('C[C@]12CCC3c4ccc(O)cc4CCC3C1CC[C@@]2(O)C#Cc1ccc(C#C/C=C\C#Cc2ccccc2N)cc1 (stereo partly drawn)', '> 100 µM'),
  ('O=C(CCN1CCCC1)CC(c1ccccc1)c1c(O)c2ccccc2oc1=O (stereo not drawn)', '> 100 µM'),
  ('CCc1n[nH]c(=O)n1NC(=O)CCCC(=O)O', '> 100 µM'),
  ('CCCCOC(=O)NC(Nc1ccc(S(N)(=O)=O)cc1)(C(F)(F)F)C(F)(F)F', '> 100 µM'),
  ('CO[C@H](C(=O)[C@@H](O)[C@@H](C)O)[C@@H]1Cc2cc3cc(O[C@H]4C[C@@H](O[C@H]5C[C@@H](O)[C@H](O)C(C)O5)[C@H](O)C(C)(O)O4)cc(O)c3c(O)c2C(=O)[C@H]1O[C@H]1C[C@@H](O[C@H]2C[C@@H](O[C@H]3C[C@@H](OC)[C@H](O)C(C)O3)[C@@H](O)C(C)O2)[C@H](O)C(C)O1 (stereo partly drawn)', '> 16.8 µM'),
  ('COC(=O)[C@@H](Cc1ccccc1)NNC(=O)OC(C)(C)C', '> 100 µM'),
  ('O=C(O)C1CCCN1C(=O)c1cc(Cl)ccn1 (stereo not drawn)', '> 100 µM'),
  ('COc1ccc2c(c1)c(=O)c1c(NCCN(C)C)ccc3c(=O)n(CCN(C)C)c(=O)n2c31', '0.659 µM'),
  ('c1ccc([P+](CCN2Cc3ccccc3C2)(c2ccccc2)c2ccccc2)cc1', '16 µM'),
  ('CCCCCCC1NN(C(C)=O)C(CCCCCC)NN1C(C)=O (stereo not drawn)', '> 100 µM'),
  ('COc1ccc(S(=O)(=O)Nc2cc(/C=C\c3cc(OC)c(OC)c(OC)c3)cc(OC)c2OC)cc1', '> 100 µM');

Data provenance: PubChem BioAssay (NCI)
